MEASUREMENT_TARGET: Peptide 1: Biotin-…-[Tyr(PC)]-acid
Sequence (peptide, as listed by the source): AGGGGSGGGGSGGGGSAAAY
ASSAY_COMMENT: scFv ELISA
MEASURE: OD450 (OD450)

PcOxP_DB01_F10 (scFv, V domains shown, scFv in periplasmic extract) VH: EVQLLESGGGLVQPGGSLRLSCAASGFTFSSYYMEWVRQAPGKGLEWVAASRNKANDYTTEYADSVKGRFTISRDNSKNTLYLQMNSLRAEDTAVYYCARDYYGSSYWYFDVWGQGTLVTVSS VL: DIQMTQSPSSLSASVGDRVTITCTASESLYSSKHKVHYLAWYQQKPGKAPKLLIYGASNGYIGVPSRFSGSGSGTDFTLTISSLQPEDFATYYCAQFYTYPLTFGGGTKVEIK ... 0.68
PcOxP_DB04_G09 (scFv, V domains shown, scFv in periplasmic extract) VH: EVQLLESGGGLVQPGGSLRLSCAASGNTFSDFYMEWVRQAPGKGLEWVAASRNKWNDYTTEYADSVKGRFTISRDNSKNTLYLQMNSLRAEDTAVYYCARDYYGSSYWYFDVWGQGTLVTVSS VL: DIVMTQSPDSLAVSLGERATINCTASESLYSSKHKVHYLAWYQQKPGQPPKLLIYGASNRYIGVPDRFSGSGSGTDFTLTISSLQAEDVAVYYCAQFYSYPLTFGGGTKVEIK ... 0.48
